Field: Ka. Provide a value for each of the binders that follow.
# TARGET_SYSTEM: T1, human DLL4 extracellular domain protein, His-tagged (R&D System Cat: 1506-D4/CF) (human, UniProt Q9NR61 27-522)
# T1 construct: range 27-522; Bought protein; also called hDLL4-His; human DLL4-His; not shown: C-terminal histidine tag
# T1 sequence (Q9NR61 27-522 limits assumed): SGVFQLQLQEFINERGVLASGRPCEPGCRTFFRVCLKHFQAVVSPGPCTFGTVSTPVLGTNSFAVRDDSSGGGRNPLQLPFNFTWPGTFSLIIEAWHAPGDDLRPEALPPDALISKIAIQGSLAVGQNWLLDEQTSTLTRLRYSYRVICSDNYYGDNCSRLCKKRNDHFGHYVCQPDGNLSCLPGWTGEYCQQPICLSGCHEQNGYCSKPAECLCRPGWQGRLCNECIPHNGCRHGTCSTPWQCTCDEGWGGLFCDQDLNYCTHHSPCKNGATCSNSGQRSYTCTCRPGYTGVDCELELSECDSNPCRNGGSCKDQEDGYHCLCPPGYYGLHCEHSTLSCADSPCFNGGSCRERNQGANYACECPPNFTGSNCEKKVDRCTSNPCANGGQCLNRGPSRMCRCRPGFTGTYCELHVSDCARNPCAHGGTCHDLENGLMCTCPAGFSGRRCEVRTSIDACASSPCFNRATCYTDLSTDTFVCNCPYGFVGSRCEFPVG
# METHOD: SPR (Biacore T200), hDLL4 immobilised on a CM5 chip, antibody as analyte; the table says 'Bivalent binding'
# Protocol: To be specific, Biacore T200 was used in SPR analysis and HBS-EP (10 mM HEPES, pH7.4, 150 mM NaCl, 3 mM EDTA, 0.15% surfactant P20) was used as a running buffer. […] Anti-DLL4 antibodies that bind to hDLL4, i.e., MLCK1, MLCK2, MLCK-3, and MLCK4, were diluted in a running buffer to a final molar concentration of 100 nM, serially diluted 5 times, and each of the 5 dilutions was analyzed. […] The experimental results were analyzed by Biaevaluation software version 4.0. […]
Supply the numeric figure in M⁻¹, leaving out any unit text.

Read off the recorded Ka for MLCK-1 (antibody, V domains shown, Human monoclonal antibody from a phage scFv library; Only the variable regions are tied to the clone; In flow cytometry it was detected with an anti-human IgG Fc-specific antibody, so it carries a human Fc; also called anti-DLL4 antibody) VH: EVQLLESGGGLVQPGGSLRLSCAASGFTFSDYAMSWVRQAPGKGLEWVSWIYSDDGNKYYADSVKGRFTISRDNSKNTLYLQMNSLRAEDTAVYYCARADPPFDYWGQGTLVTVSS VL: QSVLTQPPSASGTPGQRVTISCTGSSSNIGSNNVSWYQQLPGTAPKLLIYSDNNRPSGVPDRFSGSKSGTSASLAISGLRSEDEADYYCATWDSSLNGYVFGGGTKLTVL
3.8e+06

Read off the recorded Ka for MLCK-3 (antibody, V domains shown, Human monoclonal antibody from a phage scFv library; Only the variable regions are tied to the clone; In flow cytometry it was detected with an anti-human IgG Fc-specific antibody, so it carries a human Fc; also called anti-DLL4 antibody) VH: EVQLLESGGGLVQPGGSLRLSCAASGFTFSDYAMSWVRQAPGKGLEWVSWIYYDSGSKYYADSVKGRFTISRDNSKNTLYLQMNSLRAEDTAVYYCARADLPFDYWGQGTLVTVSS VL: QSVLTQPPSASGTPGQRVTISCSGSSSNIGNNAVTWYQQLPGTAPKLLIYSDNHRPSGVPDRFSGSKSGTSASLAISGLRSEDEADYYCGTWDASLSGYVFGGGTKLTVL
1.44e+08

Read off the recorded Ka for MLCK-4 (antibody, V domains shown, Human monoclonal antibody from a phage scFv library; Only the variable regions are tied to the clone; In flow cytometry it was detected with an anti-human IgG Fc-specific antibody, so it carries a human Fc; also called anti-DLL4 antibody) VH: EVQLLESGGGLVQPGGSLRLSCAASGFTFSNYAMSWVRQAPGKGLEWVSWIYHGGGDTYYADSVKGRFTISRDNSKNTLYLQMNSLRAEDTAVYYCARGPNYTFGKPFDYWGQGTLVTVSS VL: QSVLTQPPSASGTPGQRVTISCRGSPSNIGNNTVYWYQQLPGTAPKLLIYSDSQRPSGVPDRFSGSKSGTSASLAISGLRSEDEADYYCGSWDYSLSAYVFGGGTKLTVL
469000

Read off the recorded Ka for MLCK-2 (antibody, V domains shown, Human monoclonal antibody from a phage scFv library; Only the variable regions are tied to the clone; In flow cytometry it was detected with an anti-human IgG Fc-specific antibody, so it carries a human Fc; also called MLCK-2 mAb; anti-DLL4 antibody) VH: EVQLLESGGGLVQPGGSLRLSCAASGFTFSDYAMSWVRQAPGKGLEWVSWIYSGSGNKYYADSVKGRFTISRDNSKNTLYLQMNSLRAEDTAVYYCARADWPFDYWGQGTLVTVSS VL: QSVLTQPPSASGTPGQRVTISCTGSSSNIGSNDVTWYQQLPGTAPKLLIYADSKRPSGVPDRFSGSKSGTSASLAISGLRSEDEADYYCGTWDYSLSAYVFGGGTKLTVL
5.86e+08

Ref: patent US20150183856A1
